procedure.text: Aqueous solubility determination
Format: physicochemical
test.context: simulated intestinal fluid, fassgf or other biorelevant; read-out: aqueous solubility in simulated intestinal fluid

compound | solubility
Cc1cc(OP(=O)(O)OC[C@H]2O[C@@H](n3ccc(N)nc3=O)C(F)(F)C2O)cc2c1O[C@](C)(CCC[C@H](C)CCC[C@H](C)CCCC(C)C)CC2 (stereo partly shown) | > 200 µM

----------
Tested on: NCI-H460
procedure.text: In vitro cytotoxicity / growth inhibition, SRB assay, 72 hr, non-small cell lung cancer cells
Assay type: cell-based
test.context: Table 2; NCI-H460
pIC50: −log10 of the molar value.
Each item that follows carries a reported pIC50.

compound | target | pIC50
CC(C)=CCC/C(C)=C/CC/C(C)=C/CCC1(C)CCc2cc(OP(=O)(O)OC[C@H]3O[C@@H](n4ccc(N)nc4=O)C(F)(F)[C@@H]3O)c(C)c(C)c2O1 (some centres unmarked) | NCI-H460 | 5.32
CC(C)=CCC/C(C)=C/CC/C(C)=C/CCC1(C)CCc2cc(OP(=O)(O)O)c(C)c(C)c2O1 (centres unmarked) [γ-tocotrienyl phosphate, reference compound] | NCI-H460 | 4.16

----------
procedure.text: Aqueous solubility determination
Assay type: physicochemical
test.context: PBS buffer, aqueous buffer; PBS (pH 7.4); read-out: aqueous solubility in PBS

compound | solubility
Cc1cc(OP(=O)(O)OC[C@H]2O[C@@H](n3ccc(N)nc3=O)C(F)(F)C2O)cc2c1O[C@](C)(CCC[C@H](C)CCC[C@H](C)CCCC(C)C)CC2 (stereo partly shown) | > 10000 µg/mL
